The values you see were collected from ChEMBL document CHEMBL1201862.

Reported values: GI50 for HCT-15, one per item.
Write the number in µM without appending the unit.

### Prompt Record request: GI50 value, item `CC(=O)Nc1sc([N+](=O)[O-])cc1S(=O)(=O)c1ccc(Cl)cc1`
### Response 3.85

### Prompt Then CCCCCCCC/C=C(\Br)C(O)C(Br)Br (stereo not given) ?
### Response 20.6

### Prompt Then O=C1/C(=C/c2cc(O)c(O)c(O)c2)Oc2cc(O)cc(OC3OC(CO)C(O)C(O)C3O)c21 (stereo not given) ?
### Response 22.4

### Prompt Then NC(Cc1ccccc1)C(=O)OCN1C(=O)C2C3C=CC(C2C1=O)C1C(=O)N(COC(=O)C(N)Cc2ccccc2)C(=O)C31 (stereo not given) ?
### Response 27.4

### Prompt Then `Oc1ccc(Cc2nccc3cc(O)c(O)cc23)cc1O` ?
### Response 57.7

### Prompt Then CCC(C)N1CN(c2ccccc2)C2(CCN(CCCC3(c4ccc(F)cc4)OCCO3)CC2)C1=O (stereo not given) ?
### Response 4.75

### Prompt Then `COC(=O)C(Cc1ccc2c(c1)CCC2)Cc1ccc2c(c1)CCC2` ?
### Response 89.7

### Prompt Then `CC[C@@]12CCCN3CC[C@]4(c5cccc(OC)c5N(C(C)=O)[C@@H]4CC1)[C@H]32` ?
### Response 79.3

### Prompt Then C[n+]1cc(C(O)c2ccc3c(c2)OCO3)c2ccccc2c1 (stereo not given) ?
### Response 33.5

### Prompt Then `CCCCCCC(N)(CCCCCC)C(=O)Nn1c(C)ccc1C` ?
### Response 24

### Prompt Then CC(C)=CCC/C(C)=C/CCC1(C)C2COC(=O)C21 (stereo not given) ?
### Response 57.4

---

Give GI50 for every item shown.
Test system: CCRF-CEM
assay: NCI tumour cell line growth inhibition, 48 h
The source made the active and inactive calls. Rule as the data show it: active = GI50 up to about 1.1 µM and inactive = higher.

### Prompt Record request: GI50 value, item C=CCOC(=O)C1=C(C)N=C2N[C@H](CCCCCCCCC)C[C@@H]3CCC1N23 (some centres undefined)
### Response 36.4 µM (inactive)

### Prompt Then `CC1(C)N=C(N)N=C(N)N1c1cccc(OCCOc2ccc([N+](=O)[O-])cc2)c1` ?
### Response 7.76 µM (inactive)

### Prompt Then CCOC(=O)C1CC(=O)C=C2CCCCC21 (centres undefined) ?
### Response > 100 µM (inactive)

### Prompt Then `COc1ccc2nc(-c3ccc(O)cc3)ccc2c1` ?
### Response 2.16 µM (inactive)

### Prompt Then CCOc1cc(C2SCC(=O)N2c2ccc(Oc3ccc(Cl)cc3)c(Cl)c2)ccc1O (centres undefined) ?
### Response 13.7 µM (inactive)

### Prompt Then CCOC(=O)CCC1(C(=O)O[C@@H]2C[C@H](C)CC[C@H]2C(C)C)CCCCC1=O (some centres undefined) ?
### Response 46.1 µM (inactive)

### Prompt Then COc1ccc(-n2c(Cn3nnc(-c4cccnc4)n3)nn(C3OC(COC(=O)c4ccccc4)C(OC(=O)c4ccccc4)C3OC(=O)c3ccccc3)c2=S)cc1 (centres undefined) ?
### Response > 100 µM (inactive)

### Prompt Then `CC(=O)O[C@H]1[C@@H]2[C@@H]3[C@@H](C[C@H]1C)[C@@H](C)CO[C@@]1(C)CC/C=C(/C)C[C@@H]2O[C@@H]31` ?
### Response > 100 µM (inactive)

### Prompt Then `Cc1ccc(NC(=O)CCC/C(CC(=O)c2ccc(Br)cc2)=N/NC(=O)CC#N)cc1` ?
### Response > 100 µM (inactive)
